experimental protocol: BT084 cell growth, single and combined drugs, ICGC_MB145, cisplatin and BGB IC40 combos (AID 1671461);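 further: cells exposed to drugs for 96 hours; 0% = vehicle DMSO and 100% = high DMSO full killing control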
condition set: BT084 medulloblastoma cells, drug combinations, cisplatin combination, at 0.5 µM, stronger effect = higher value
readout type: inhibition (%)
Answer format: numeric, % implied, no suffix.

// known answers, use as guide
# compound, recorded value
data = [
    ("O=c1cc(N2CCOCC2)oc2c1ccc1ccccc12", -0.482),
    ("NC(=O)c1nc(F)c[nH]c1=O", 6.95),
    ("Nc1ccc(-c2ccc3ncc4ccc(=O)n(-c5cccc(C(F)(F)F)c5)c4c3c2)cn1", 28.2),
]

Measured inhibition of C=C1[C@H](CO)[C@@H](O)C[C@@H]1n1cnc2c(=O)[nH]c(N)nc21 : 2.02

Measured inhibition of Cc1ccc2nc(NCCN)c3ncc(C)n3c2c1 : -3.36

Measured inhibition of O=C(COc1cccc2c(=O)[nH]ccc12)c1ccccc1 : -34.9

Measured inhibition of Cc1ccc([N+](=O)[O-])cc1S(=O)(=O)N(C)/N=C/c1cnc2ccc(Br)cn12 : 8.05

Measured inhibition of O=C(O)[C@H](Cc1c[nH]c2ccccc12)N1C(=O)c2ccccc2C1=O : -26.2

Measured inhibition of N=C1CCCN1Cc1[nH]c(=O)[nH]c(=O)c1Cl : -17.8

Measured inhibition of COc1ccc(C(=O)CC2(O)C(=O)Nc3c(Cl)ccc(Cl)c32)cc1 (stereo unspecified) : 1.77

Measured inhibition of CN(C)c1ccc(C(=O)NCCCCCCC(=O)NO)cc1 : 48.8
